Data credit: patent US7074789B2

# pIC50 annotations
assay target: Lck (Homo sapiens, UniProt P06239)
Construct: Kinases are expressed as either kinase domains or full length constructs; made in house
Sequence (P06239 whole entry, species assumed, the tested form may be a part): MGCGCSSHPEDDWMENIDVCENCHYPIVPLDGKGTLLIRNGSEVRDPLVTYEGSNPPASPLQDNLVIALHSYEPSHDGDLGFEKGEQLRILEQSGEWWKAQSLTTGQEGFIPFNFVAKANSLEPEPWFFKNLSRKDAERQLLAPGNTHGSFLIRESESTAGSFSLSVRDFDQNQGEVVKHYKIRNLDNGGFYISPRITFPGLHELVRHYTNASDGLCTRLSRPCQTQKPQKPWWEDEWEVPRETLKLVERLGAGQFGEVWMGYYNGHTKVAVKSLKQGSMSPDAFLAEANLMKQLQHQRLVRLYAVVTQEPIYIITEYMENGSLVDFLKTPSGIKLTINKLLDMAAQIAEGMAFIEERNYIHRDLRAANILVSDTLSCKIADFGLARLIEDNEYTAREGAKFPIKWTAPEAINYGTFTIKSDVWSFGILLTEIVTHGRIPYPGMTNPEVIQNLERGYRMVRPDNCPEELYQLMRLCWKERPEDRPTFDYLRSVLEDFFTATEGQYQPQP
test description: Kinase inhibition assay (33P transfer), Lck
Type: biochemical
measurement conditions: Table 3; read-out: Lck-1
pIC50: −log10 of the molar value.
result type: pIC50

[
  {
    "chem smiles": "NC(=O)c1cccc(Nc2ncnc(-c3ccccc3)n2)c1",
    "result": "< 4.81"
  },
  {
    "chem smiles": "COc1cc(Nc2ncnc(Cl)n2)cc(OC)c1OC",
    "result": "< 4.82"
  },
  {
    "chem smiles": "c1csc(-c2ncnc(Nc3ccc(N4CCOCC4)cc3)n2)c1",
    "result": "5.15 to 5.93"
  },
  {
    "chem smiles": "C=CCNc1cc(-c2ncnc(Nc3cc(OC)c(OC)c(OC)c3)n2)ccn1",
    "result": "> 5.99"
  },
  {
    "chem smiles": "COc1ccc(Nc2ncnc(-n3cccc3)n2)c(OC)c1",
    "result": "< 4.82"
  },
  {
    "chem smiles": "COc1cc(Nc2ncnc(N(CCC(C)C)c3ccc(Cl)cc3)n2)cc(OC)c1OC",
    "result": "5.28 to 6.06"
  },
  {
    "chem smiles": "Clc1cc(Cl)cc(Nc2ncnc(-n3cccc3)n2)c1",
    "result": "< 4.83"
  },
  {
    "chem smiles": "NC(=O)c1ccc(Nc2ncnc(-n3c(N)nc4ccccc43)n2)cc1",
    "result": "5.16 to 5.94"
  },
  {
    "chem smiles": "OCc1ccc(Nc2ncnc(Nc3cc(-c4ccco4)n[nH]3)n2)cc1",
    "result": "5.16 to 5.94"
  },
  {
    "chem smiles": "O=[N+]([O-])c1cccc(Nc2ncnc(-c3cccs3)n2)c1",
    "result": "< 4.82"
  },
  {
    "chem smiles": "COc1cc(Nc2ncnc(-n3c(NC(C)C)nc4ccccc43)n2)cc(OC)c1OC",
    "result": "> 6.04"
  },
  {
    "chem smiles": "COc1cc(Nc2ncnc(N3CCc4cc([N+](=O)[O-])ccc43)n2)cc(OC)c1OC",
    "result": "< 4.97"
  },
  {
    "chem smiles": "CC(=O)NS(=O)(=O)c1ccc(Nc2ncnc(-n3c(=O)[nH]c4ccccc43)n2)cc1",
    "result": "< 4.98"
  },
  {
    "chem smiles": "Nc1nc2ccccc2n1-c1ncnc(Nc2cccc(-c3cnco3)c2)n1",
    "result": "5.19 to 5.97"
  },
  {
    "chem smiles": "CC(C)(C)OC(=O)Nc1ccc(Nc2ncnc(-c3ccccc3)n2)cc1",
    "result": "< 4.91"
  },
  {
    "chem smiles": "COc1ccc(Nc2ncnc(-c3ccccc3)n2)cc1",
    "result": "< 4.79"
  },
  {
    "chem smiles": "COc1cc(Nc2ncnc(N(CC(=O)OC(C)(C)C)c3ccc(Cl)cc3)n2)cc(OC)c1OC",
    "result": "5.16 to 5.32"
  },
  {
    "chem smiles": "COc1cc(Nc2ncnc(Nc3ccc(N)cc3)n2)cc(OC)c1OC",
    "result": "< 4.91"
  }
]
